Value source: patent EP4647082A1

Assay: Phase I first-in-human study, pharmacokinetics after single ascending subcutaneous doses in healthy volunteers
Format: in vivo
Conditions: human, plasma; single SC dose 2 mg; nominal time 0.33 h; mean; read-out: Plasma Concentration AXN-001
Bridge positions count the residues as written; N and C are the ends. Square brackets hold non-standard residues; d marks the D form. Peptide text beside a SMILES is read from it. * marks the point of attachment. Phe(2-CONH2) = NC(=O)c1ccccc1C[C@H](N)C(=O)O; Orn(iPr) = CC(C)NCCC[C@H](N)C(=O)O; Oxazole2carbonyl = O=C(c1ncco1)*; 3Pal = N[C@@H](Cc1cccnc1)C(=O)O
READOUT_KIND: level at 0.33 h (ng/mL)
Report as a plain number; the unit ng/mL is understood.

Report level at 0.33 h for CC(C)NCCC[C@@H]1NC(=O)[C@@H](NC(=O)[C@H](Cc2ccccc2C(N)=O)NC(=O)[C@H](NC(=O)c2ncco2)C(C)C)CSSC[C@@H](C(=O)N[C@@H](Cc2cccnc2)C(N)=O)NC(=O)[C@H](Cc2ccccc2)NC(=O)[C@@H]2CCCN2C(=O)CNC(=O)[C@H](C(C)C)NC(=O)[C@H](CC(=O)O)NC1=O [AXN-001] (Oxazole2carbonyl-[dV][Phe(2-CONH2)]C[Orn(iPr)]DVGPFC[3Pal]-NH2; disulfide 3-10) please.
40.4

###

Assay: Phase I first-in-human study, pharmacokinetics after single ascending subcutaneous doses in healthy volunteers
Type: in vivo
Conditions: human, plasma; single SC dose 16 mg; nominal time 8 h; mean; read-out: Plasma Concentration AXN-001
Bridge positions count the residues as written; N and C are the ends. Square brackets hold non-standard residues; d marks the D form. Peptide text beside a SMILES is read from it. * marks the point of attachment. Phe(2-CONH2) = NC(=O)c1ccccc1C[C@H](N)C(=O)O; Orn(iPr) = CC(C)NCCC[C@H](N)C(=O)O; Oxazole2carbonyl = O=C(c1ncco1)*; 3Pal = N[C@@H](Cc1cccnc1)C(=O)O
READOUT_KIND: level at 8 h
The answer consists of two parts: a number and, after it, its unit.

Report level at 8 h for CC(C)NCCC[C@@H]1NC(=O)[C@@H](NC(=O)[C@H](Cc2ccccc2C(N)=O)NC(=O)[C@H](NC(=O)c2ncco2)C(C)C)CSSC[C@@H](C(=O)N[C@@H](Cc2cccnc2)C(N)=O)NC(=O)[C@H](Cc2ccccc2)NC(=O)[C@@H]2CCCN2C(=O)CNC(=O)[C@H](C(C)C)NC(=O)[C@H](CC(=O)O)NC1=O [AXN-001] (Oxazole2carbonyl-[dV][Phe(2-CONH2)]C[Orn(iPr)]DVGPFC[3Pal]-NH2; disulfide 3-10) please.
23.7 ng/mL

###

Experiment: Phase I first-in-human study, pharmacokinetics after single ascending subcutaneous doses in healthy volunteers
Format: in vivo
Conditions: human, plasma; single SC dose 1 mg; mean
Bridge positions count the residues as written; N and C are the ends. Square brackets hold non-standard residues; d marks the D form. Peptide text beside a SMILES is read from it. * marks the point of attachment. Phe(2-CONH2) = NC(=O)c1ccccc1C[C@H](N)C(=O)O; Orn(iPr) = CC(C)NCCC[C@H](N)C(=O)O; Oxazole2carbonyl = O=C(c1ncco1)*; 3Pal = N[C@@H](Cc1cccnc1)C(=O)O
READOUT_KIND: AUC(0-inf) (ng·h/mL)
Report as a plain number; the unit ng·h/mL is understood.

Report AUC(0-inf) for CC(C)NCCC[C@@H]1NC(=O)[C@@H](NC(=O)[C@H](Cc2ccccc2C(N)=O)NC(=O)[C@H](NC(=O)c2ncco2)C(C)C)CSSC[C@@H](C(=O)N[C@@H](Cc2cccnc2)C(N)=O)NC(=O)[C@H](Cc2ccccc2)NC(=O)[C@@H]2CCCN2C(=O)CNC(=O)[C@H](C(C)C)NC(=O)[C@H](CC(=O)O)NC1=O [AXN-001] (Oxazole2carbonyl-[dV][Phe(2-CONH2)]C[Orn(iPr)]DVGPFC[3Pal]-NH2; disulfide 3-10) please.
101
